- test system: T1, FinO (F-like plasmid (Escherichia coli), UniProt P29367 1-186)
- T1 sequence: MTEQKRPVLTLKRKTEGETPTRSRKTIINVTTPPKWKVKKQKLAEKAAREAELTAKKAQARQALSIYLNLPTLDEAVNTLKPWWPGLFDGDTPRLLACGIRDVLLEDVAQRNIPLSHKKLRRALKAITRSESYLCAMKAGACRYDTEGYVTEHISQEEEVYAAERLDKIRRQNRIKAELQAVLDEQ
- assay method text: EMSA; 25 mM Tris-HCl pH 7.5, 150 mM NaCl, 5% glycerol, 1 mM MgCl2, 1 nM 32P-RNA, 30 min at room temperature; native 6% PAGE in 0.5x TBE at 4 C
- condition description: protein: recombinant; tags: His6-TEV site (ENLYFQ/S) N-terminal in the expression construct; label: 32P; terminator hairpin
pKd: −log10 of the molar value.
So basically: pKd at 7 or higher? That is Condition met. Lower than 7? That is Condition not met.

1. malM-RepX (structured_RNA) RNA: GCUUUAUCAGCAGUGUAAAAGGCAAGGGGUAAUUACGCCCCACAGUGCUGAUUUUGCAACAUUAGGUGCGUCUCCUGGCGCACCGCUCU: Condition not met
2. cspE81-FinP-stem (structured_RNA) RNA: GGCCCUUCUGCUGCAAACGUAAUCGCUCUGUAAGAUACGUCAGCAAGAAUUCAACAGUCGCUUAAUCAGCGGCGAUUUU: Condition met
